Origin of measurements: ChEMBL document CHEMBL1961873

biological target: Non-receptor tyrosine-protein kinase TYK2 (Homo sapiens) (UniProt P29597); conditions: at 0.1 µM;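 note: each value is a mean of the inhibition readings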
Sequence (P29597 whole entry): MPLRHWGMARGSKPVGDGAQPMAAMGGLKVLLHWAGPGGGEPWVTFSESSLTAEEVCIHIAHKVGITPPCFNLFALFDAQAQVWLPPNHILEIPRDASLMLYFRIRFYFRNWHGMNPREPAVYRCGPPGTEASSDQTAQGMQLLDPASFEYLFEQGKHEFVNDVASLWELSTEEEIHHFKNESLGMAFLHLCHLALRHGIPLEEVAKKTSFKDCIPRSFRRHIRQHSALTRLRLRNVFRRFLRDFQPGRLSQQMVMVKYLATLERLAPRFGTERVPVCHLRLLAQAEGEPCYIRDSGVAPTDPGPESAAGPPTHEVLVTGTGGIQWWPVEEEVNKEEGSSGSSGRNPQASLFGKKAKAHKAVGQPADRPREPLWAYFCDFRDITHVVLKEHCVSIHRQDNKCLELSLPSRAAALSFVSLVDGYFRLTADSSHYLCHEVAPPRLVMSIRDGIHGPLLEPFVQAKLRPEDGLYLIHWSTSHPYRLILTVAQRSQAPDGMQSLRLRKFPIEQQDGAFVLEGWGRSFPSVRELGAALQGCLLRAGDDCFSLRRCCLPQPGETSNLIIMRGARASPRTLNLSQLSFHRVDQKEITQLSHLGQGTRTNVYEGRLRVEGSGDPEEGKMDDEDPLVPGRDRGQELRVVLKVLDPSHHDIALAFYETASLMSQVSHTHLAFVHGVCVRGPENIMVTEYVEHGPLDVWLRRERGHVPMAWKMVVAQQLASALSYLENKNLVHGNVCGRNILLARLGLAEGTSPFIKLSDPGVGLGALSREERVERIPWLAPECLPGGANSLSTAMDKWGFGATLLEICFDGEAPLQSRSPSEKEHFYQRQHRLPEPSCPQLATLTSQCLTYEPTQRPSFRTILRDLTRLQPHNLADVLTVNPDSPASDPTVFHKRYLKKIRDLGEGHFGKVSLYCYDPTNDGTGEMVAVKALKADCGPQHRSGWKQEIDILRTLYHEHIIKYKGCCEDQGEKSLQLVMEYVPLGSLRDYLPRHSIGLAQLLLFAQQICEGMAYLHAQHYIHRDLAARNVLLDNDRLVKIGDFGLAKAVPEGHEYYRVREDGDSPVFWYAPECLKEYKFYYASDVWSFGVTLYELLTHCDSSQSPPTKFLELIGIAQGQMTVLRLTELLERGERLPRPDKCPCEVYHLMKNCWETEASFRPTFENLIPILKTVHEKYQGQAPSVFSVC
readout: inhibition

inhibition recorded for this molecule, CCn1c(-c2nonc2N)nc2c(C#CC(C)(C)O)ncc(OCC3CCNCC3)c21 , is -1.24%

inhibition recorded for this molecule, CCn1c(-c2nonc2N)nc2c(C#CCN)ncc(OCCCN)c21 , is 5.99%

inhibition recorded for this molecule, NS(=O)(=O)c1ccc(-c2ccc3c(NC(=O)C4CC4)n[nH]c3c2)cc1 , is -5.6%

inhibition recorded for this molecule, COc1cccc(-n2ncc3c(N/N=C/c4ccncc4)ncnc32)c1 , is -2.74%

inhibition recorded for this molecule, Nc1nonc1-c1nc2cnccc2n1C1CCCCC1 , is 4.5%

inhibition recorded for this molecule, NC(=O)c1sc(-n2cnc3cc(C(F)(F)F)ccc32)cc1OCc1ccccc1Br , is 0.53%

inhibition recorded for this molecule, NS(=O)(=O)c1ccc(N/C=C2\C(=O)Nc3ccc4ncsc4c32)cc1 , is 1.37%

inhibition recorded for this molecule, COc1cc2c(cc1Nc1nc(Nc3ccsc3C(N)=O)c3cc[nH]c3n1)N(C(=O)CN(C)C)CCC2 , is -8.98%

inhibition recorded for this molecule, Cc1cc(-c2ccco2)cc(C)c1/C=C/c1cncc(-c2nn[nH]n2)c1 , is 0.06%
